tested_target: human RXFP1, full-length (human), Q9HBX9
Sequence (Q9HBX9 whole entry): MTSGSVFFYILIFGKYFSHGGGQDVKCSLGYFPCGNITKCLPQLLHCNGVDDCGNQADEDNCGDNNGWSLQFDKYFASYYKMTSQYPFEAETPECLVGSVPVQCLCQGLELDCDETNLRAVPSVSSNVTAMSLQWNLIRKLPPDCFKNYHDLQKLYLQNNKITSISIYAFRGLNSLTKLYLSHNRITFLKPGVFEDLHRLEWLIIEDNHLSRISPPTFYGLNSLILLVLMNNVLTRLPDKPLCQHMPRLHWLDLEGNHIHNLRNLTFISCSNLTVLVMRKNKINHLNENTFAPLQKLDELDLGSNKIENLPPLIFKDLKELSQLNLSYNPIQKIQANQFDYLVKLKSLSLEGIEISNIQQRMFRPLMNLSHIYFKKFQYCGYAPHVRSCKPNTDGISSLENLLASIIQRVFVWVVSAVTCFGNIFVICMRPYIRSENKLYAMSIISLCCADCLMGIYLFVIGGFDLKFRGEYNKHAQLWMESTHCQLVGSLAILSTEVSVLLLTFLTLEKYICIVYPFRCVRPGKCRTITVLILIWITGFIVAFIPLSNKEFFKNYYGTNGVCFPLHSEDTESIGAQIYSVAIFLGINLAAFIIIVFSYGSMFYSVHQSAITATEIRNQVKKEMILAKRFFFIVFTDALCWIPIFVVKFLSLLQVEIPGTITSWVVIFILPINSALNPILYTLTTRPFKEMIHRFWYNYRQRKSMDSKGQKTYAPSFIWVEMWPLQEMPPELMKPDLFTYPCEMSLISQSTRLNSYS
experiment_notes: cell-based or functional assay
attribute_measured: Potency Assay EC50 (nM), transient hRXFP1 cAMP assay
Give your result as the value with the unit written after it.

SEQ ID NO: 60 (Fc fusion) DKTHTCPPCPAPEAAGGPSVFLFPPKPKDTLMISRTPEVTCVVVDVSHEDPEVKFNWYVDGVEVHNAKTKPREEQYNSTYRVVSVLTVLHQDWLNGKEYKCKVSNKALAAPIEKTISKAKGQPREPQVYTLPPSRDELTKNQVSLTCLVKGFYPSDIAVEWESNGQPENNYKTTPPVLDSDGSFFLYSKLTVDKSRWQQGNVFSCSVLHEALHSHYTQKSLSLSPGKGGSDSWQEEVIKLCGRELVRAQIAICGKSTGGGEGGGEGGGEGGGQLYSALANKCCHVGCTKRSLARFC | 15.8 nM

Give Potency Assay EC50 (nM), transient hRXFP1 cAMP assay for each listed item.
1. SEQ ID NO: 68 (Fc fusion) DKTHTCPPCPAPEAAGGPSVFLFPPKPKDTLMISRTPEVTCVVVDVSHEDPEVKFNWYVDGVEVHNAKTKPREEQYNSTYRVVSVLTVLHQDWLNGKEYKCKVSNKALAAPIEKTISKAKGQPREPQVYTLPPSRDELTKNQVSLTCLVKGFYPSDIAVEWESNGQPENNYKTTPPVLDSDGSFFLYSKLTVDKSRWQQGNVFSCSVLHEALHSHYTQKSLSLSPGGGSDSWQEEVIKLCGRELVRAQIAICGKSTGGGEGGGEGGGEGRQLYSALANKCCHVGCTKRSLARFC
2. SEQ ID NO: 82 (Fc fusion) DKTHTCPPCPAPEAAGGPSVFLFPPKPKDTLMISRTPEVTCVVVDVSHEDPEVKFNWYVDGVEVHNAKTKPREEQYNSTYRVVSVLTVLHQDWLNGKEYKCKVSNKALAAPIEKTISKAKGQPREPQVYTLPPSRDELTKNQVSLTCLVKGFYPSDIAVEWESNGQPENNYKTTPPVLDSDGSFFLYSKLTVDKSRWQQGNVFSCSVLHEALHSHYTQKSLSLSPGKGGSDSWQEEVIKLCGRELVRAQIAICGKSTGGEGEGGEGEGGSRQLYSALANKCCHVGCTKRSLAQFC
3. SEQ ID NO: 80 (Fc fusion) DKTHTCPPCPAPEAAGGPSVFLFPPKPKDTLMISRTPEVTCVVVDVSHEDPEVKFNWYVDGVEVHNAKTKPREEQYNSTYRVVSVLTVLHQDWLNGKEYKCKVSNKALAAPIEKTISKAKGQPREPQVYTLPPSRDELTKNQVSLTCLVKGFYPSDIAVEWESNGQPENNYKTTPPVLDSDGSFFLYSKLTVDKSRWQQGNVFSCSVLHEALHSHYTQKSLSLSPGGGSDSWQEEVIKLCGRELVRAQIAICGKSTGGGEGGGEGGGEGRQDYSALANKCCHVGCTKRSLARFC

Response:
3.3 nM
18.9 nM
162 nM
